test_target: mGlyT-1b (Mus musculus (Mouse), UniProt P28571)
Sequence (P28571 other isoform, or with tags, fused parts or gaps isoform P28571-2): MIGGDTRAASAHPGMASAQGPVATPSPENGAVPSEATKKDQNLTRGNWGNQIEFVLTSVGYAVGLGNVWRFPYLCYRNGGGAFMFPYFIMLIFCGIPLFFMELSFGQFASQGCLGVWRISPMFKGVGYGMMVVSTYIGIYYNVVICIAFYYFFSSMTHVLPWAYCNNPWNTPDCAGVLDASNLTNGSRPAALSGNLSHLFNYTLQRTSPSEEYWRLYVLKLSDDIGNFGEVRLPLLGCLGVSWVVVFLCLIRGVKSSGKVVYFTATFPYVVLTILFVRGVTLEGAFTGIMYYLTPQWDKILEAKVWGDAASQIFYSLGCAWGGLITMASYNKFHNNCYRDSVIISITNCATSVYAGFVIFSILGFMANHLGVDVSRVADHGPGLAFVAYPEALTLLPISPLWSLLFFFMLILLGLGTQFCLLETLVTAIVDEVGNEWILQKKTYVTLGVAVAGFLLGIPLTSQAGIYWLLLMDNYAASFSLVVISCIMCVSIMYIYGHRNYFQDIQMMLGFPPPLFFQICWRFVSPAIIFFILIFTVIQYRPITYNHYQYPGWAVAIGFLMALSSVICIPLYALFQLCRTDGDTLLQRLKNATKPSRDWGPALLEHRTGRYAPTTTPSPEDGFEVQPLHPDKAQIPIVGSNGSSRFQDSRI
experiment_notes: Glycine Uptake Inhibition Assay (mGlyT-1b)
conditions_used: [3H]-glycine uptake in Flp-in-CHO cells stably transfected with mGlyT1b cDNA; 20 min preincubation at 22° C.
recorded_endpoint: pIC50
pIC50 here: minus log base 10 of the concentration, concentration in moles per litre.

{"columns": ["compound", "pIC50"],
 "data": [
  ["COc1cc(C(F)(F)F)cc(SC)c1C(=O)N[C@H]1COCC[C@H]1NC1CCC1 (racemic) [Example 3]", 6.30],
  ["O=C(N[C@@H]1COCC[C@H]1NC1CC1)c1ccc(C(F)(F)F)cc1C1CC1 (racemic) [Example 20]", 6.71],
  ["CCc1cc(C(F)(F)F)cc(CC)c1C(=O)N[C@@H]1COCC[C@H]1N1CCCC1 (racemic) [Example 23]", 7.23]
]}

Given CC(C)N[C@@H]1CCOC[C@H]1NC(=O)c1ccc(C(F)(F)F)cc1C1CC1 (racemic) [Example 16] , state its recorded pIC50.
6.53
